Origin of measurements: ChEMBL document CHEMBL1124267

OD for assorted compounds
test system: P388; assay: Optimal dose administered intraperitoneally after intraperitoneal inoculation of 10 e 6 P388 leukemia cells; type: functional, Mus musculus
Measured Quantity: OD (mg/kg)

1. CN(C)CCNC(=O)c1cccc2c1Sc1ccccc1S2: 225
2. CN(C)CCNC(=O)c1cccc2c(=O)c3ccccc3[nH]c12: 150
3. CN(C)CCNC(=O)c1cccc2c(-c3ccccc3)c3ccccc3nc12: 65
4. CN(C)CCNC(=O)c1cccn2c(=O)c3ccccc3nc12: 45
5. CN(C)CCNC(=O)c1cccc2cc3ccccc3nc12: 66
6. CN(C)CCNC(=O)c1cccc2c1C(=O)c1ccccc1C2=O: 100
7. CN(C)CCNC(=O)c1cccc2cc3ccccc3cc12: 150
8. CN(C)CCNC(=O)c1cccc2c1Oc1ccccc1S2: 100
9. CN(C)CCNC(=O)c1cccc2nc3ccccc3nc12: 150
10. CN(C)CCNC(=O)c1cccc2c1Nc1ccccc1O2: 100
11. CN(C)CCNC(=O)c1cccc2cccnc12: 150
12. CN(C)CCNC(=O)c1cccc2c1oc1ccccc12: 100
